system: ACHN renal; experiment: NCI tumour cell line growth inhibition, 48 h
Attribute measured: GI50

Some compounds with known GI50 results, for comparison:
INSERT INTO results (compound, observed) VALUES
  ('Nc1ccccc1SC(CC(=O)c1ccccc1)c1ccc([N+](=O)[O-])cc1 (centres undefined)', '11.8 µM'),
  ('CCOC(CCCNCCCn1c2c(c3cc(OC)c(OC)cc3c1=O)C(=O)c1cc3c(cc1-2)OCO3)OCC', '1.28 µM'),
  ('CCOC(=O)C(Cc1c[nH]c2ccc([N+](=O)[O-])cc12)(NC(C)=O)C(=O)OCC', '151 µM');

The record that follows has no GI50 shown yet.
Answer with the recorded GI50 of `Cc1nc2ccccn2c1NC(=O)NNC(=S)Nc1ccc(Br)cc1` only.
37.9 µM
